- assayRemarks: Thermal stability test
- Format: physicochemical
- recordedConditions: Condition (1): closed state, 60° C.; time 0 month
observedProperty: Residual rate of Compound (I) (%)
Your answer is read as %, so omit the unit and give the number.

Bench note: what Residual rate of Compound (I) did CC1=C(C(=O)OC(C)C)C(c2cccc([N+](=O)[O-])c2)C(C(=O)OC2CN(C(c3ccccc3)c3ccccc3)C2)=C(N)N1.CS(=O)(=O)O.CS(=O)(=O)O (stereo not shown) show?
99.6

Can you check CC1=C(C(=O)OC(C)C)C(c2cccc([N+](=O)[O-])c2)C(C(=O)OC2CN(C(c3ccccc3)c3ccccc3)C2)=C(N)N1.O=C(O)CC(O)(CC(=O)O)C(=O)O (single isomer, unassigned) next?
98.8

And the next one, CC1=C(C(=O)OC(C)C)C(c2cccc([N+](=O)[O-])c2)C(C(=O)OC2CN(C(c3ccccc3)c3ccccc3)C2)=C(N)N1.CS(=O)(=O)O.CS(=O)(=O)O.CS(=O)(=O)O (stereo not shown) ?
99.5

Next entry: CC1=C(C(=O)OC(C)C)C(c2cccc([N+](=O)[O-])c2)C(C(=O)OC2CN(C(c3ccccc3)c3ccccc3)C2)=C(N)N1.O=S(=O)(O)c1ccccc1.O=S(=O)(O)c1ccccc1 (stereo not shown)
99.7

Note, next up: CC1=C(C(=O)OC(C)C)C(c2cccc([N+](=O)[O-])c2)C(C(=O)OC2CN(C(c3ccccc3)c3ccccc3)C2)=C(N)N1.O=S(=O)(O)O (stereo not shown) [Comparative Example 3, reference compound]
99.5

Then what about the compound CC1=C(C(=O)OC(C)C)C(c2cccc([N+](=O)[O-])c2)C(C(=O)OC2CN(C(c3ccccc3)c3ccccc3)C2)=C(N)N1.Cc1ccc(S(=O)(=O)O)cc1.Cc1ccc(S(=O)(=O)O)cc1 (stereo not shown) ?
99.6

Also Br.Br.CC1=C(C(=O)OC(C)C)C(c2cccc([N+](=O)[O-])c2)C(C(=O)OC2CN(C(c3ccccc3)c3ccccc3)C2)=C(N)N1 (single isomer, unassigned) , if possible.
99.9

----------
- assayRemarks: Absorbability test in dog
- Type: in vivo, dog (male beagle)
- recordedConditions: fasted male beagle, tetragastrin-treated, oral gelatin capsule 100 mg/body, plasma
- Method: Tetragastrin (6 μg/kg) was intramuscularly injected to the posterior region of thigh of a fasted male beagle (body weight: about 10 kg, n=4) to make the intragastric pH acidic 30 minutes before, immediately before and 30 minutes after administration of the test compound. The test compound was encapsulated in gelatin capsules at a dose of 100 mg/body and orally administered. […] The solution was analyzed by LC/MS/MS. […]
observedProperty: Cmax
Reply with the number and its unit after it.

Form field: reported Cmax of CC1=C(C(=O)OC(C)C)C(c2cccc([N+](=O)[O-])c2)C(C(=O)OC2CN(C(c3ccccc3)c3ccccc3)C2)=C(N)N1 (centres unmarked) [Compound (I), reference compound]
178 ng/mL

Okay, and Br.Br.CC1=C(C(=O)OC(C)C)C(c2cccc([N+](=O)[O-])c2)C(C(=O)OC2CN(C(c3ccccc3)c3ccccc3)C2)=C(N)N1 (single isomer, unassigned) ?
248 ng/mL

----------
- assayRemarks: Thermal stability test
- Type: physicochemical
- recordedConditions: Condition (2): non-closed state, 40° C., humidity 75%; time 1 month
I'd appreciate it if you could supply Residual rate of Compound (I) values for the items below.
Express your answer in %, writing the number without its unit.

Looking for the measured Residual rate of Compound (I) of Br.Br.CC1=C(C(=O)OC(C)C)C(c2cccc([N+](=O)[O-])c2)C(C(=O)OC2CN(C(c3ccccc3)c3ccccc3)C2)=C(N)N1 (single isomer, unassigned) , can you help?
99.5

Same lookup for CC1=C(C(=O)OC(C)C)C(c2cccc([N+](=O)[O-])c2)C(C(=O)OC2CN(C(c3ccccc3)c3ccccc3)C2)=C(N)N1.Cc1ccc(S(=O)(=O)O)cc1.Cc1ccc(S(=O)(=O)O)cc1 (centres unmarked) , please.
97.5

// next record CC1=C(C(=O)OC(C)C)C(c2cccc([N+](=O)[O-])c2)C(C(=O)OC2CN(C(c3ccccc3)c3ccccc3)C2)=C(N)N1.CS(=O)(=O)O.CS(=O)(=O)O.CS(=O)(=O)O (centres unmarked)
99.1

What do we get for CC1=C(C(=O)OC(C)C)C(c2cccc([N+](=O)[O-])c2)C(C(=O)OC2CN(C(c3ccccc3)c3ccccc3)C2)=C(N)N1.O=S(=O)(O)O (centres unmarked) [Comparative Example 3, reference compound] ?
93.9

Cool, now CC1=C(C(=O)OC(C)C)C(c2cccc([N+](=O)[O-])c2)C(C(=O)OC2CN(C(c3ccccc3)c3ccccc3)C2)=C(N)N1.Cl.Cl (centres unmarked) [Comparative Example 1, reference compound]
62.9

The measurements presented in this section are drawn from patent US20090170827A1.
